Where do the numbers come from? From the Human Domainome abundance scans (Beltran et al. 2025).

B1: Histone H1t, residues 44 to 112; numbered along this chain, P22492 (parent)
chain: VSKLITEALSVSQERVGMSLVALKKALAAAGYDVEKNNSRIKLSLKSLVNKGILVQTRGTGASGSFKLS

# Variants of: B1
# protocol: abundance fitness (aPCA) (normalised: wild type 0, dead -1); higher = more abundant; growth selection in yeast, the domain comes from the species named
# condition_parameters: Homo sapiens
Attribute: abundance fitness
The response must contain the number and no unit.

Prompt: Quick one: abundance fitness for `F66Q` ?
Response: -0.072

Prompt: Then this variant: `V21S`
Response: 0.018
